System: SUM159PT
PROCEDURE DETAILS: -log10 GI50 (growth inhibition 50%) (-log10(M)); higher = more potent growth inhibition
Assign class by -log10 GI50: not lower than 5 means class 1; lower than 5 means class 0.

Could you verify whether the entry CCC1=C[C@@H]2CN(C1)Cc1c([nH]c3ccccc13)[C@@](C(=O)OC)(c1cc3c(cc1OC)N(C)[C@H]1[C@@](O)(C(=O)OC)[C@H](OC(C)=O)[C@]4(CC)C=CCN5CC[C@]31[C@@H]54)C2 shows -log10 GI50 of no less than 5? class 1

Follow-up entry: CCCC(CCC)C(=O)O class 0

Same question, COc1cccc2c1C(=O)c1c(O)c3c(c(O)c1C2=O)C[C@@](O)(C(=O)CO)C[C@@H]3O[C@H]1C[C@H](N)[C@@H](O)[C@H](C)O1 [Epirubicin] this time class 1

Field entry: Cc1ccc(NC(=O)c2ccc(CN3CCN(C)CC3)cc2)cc1Nc1nccc(-c2cccnc2)n1 class 0

Same read-out for CC/C(=C(\c1ccccc1)c1ccc(OCCN(C)C)cc1)c1ccccc1 ? class 0

Record: Cc1[nH]c2ccccc2c1CCNCc1ccc(/C=C/C(=O)NO)cc1 class 1

Try this compound too: Oc1cc(-c2nc(-c3ccccc3)[nH]c2-c2ccncc2)ccc1Cl class 0

Now give it for CC(C)Oc1ccc(C(=O)N[C@H](CNC(=O)CN(C)C)Cc2ccc(-c3cn4cccc([C@H](C)O)c4n3)cc2)cc1Cl too. class 1

Quick one: COc1ncc(-c2ccc3nccc(-c4ccnnc4)c3c2)cc1NS(=O)(=O)c1ccc(F)cc1F class 1

Thanks! And C=CCNC1=C2C[C@@H](C)C[C@H](OC)[C@H](O)[C@@H](C)/C=C(\C)[C@H](OC(N)=O)[C@@H](OC)/C=C\C=C(/C)C(=O)NC(=CC1=O)C2=O ? class 1

Follow-up item: COc1ccc(-c2cc3c(C)nc(N)nc3n([C@H]3CC[C@H](OCCO)CC3)c2=O)cn1 class 1

Subsequent entry: CNC(=O)c1cc(Oc2ccc(NC(=O)Nc3ccc(Cl)c(C(F)(F)F)c3)cc2)ccn1 class 0

Next compound: C[C@]12O[C@H](C[C@]1(O)CO)n1c3ccccc3c3c4c(c5c6ccccc6n2c5c31)CNC4=O class 1

Also need Cc1ccc(C(=O)N(CCCN)[C@@H](c2nc3cc(Cl)ccc3c(=O)n2Cc2ccccc2)C(C)C)cc1 , thanks. class 1

Follow-up entry: O=S(=O)(CC1CS1)c1ccc(Oc2ccccc2)cc1 (stereo unspecified) class 0

Now consider O=C(O)C(=O)O.[NH-][C@@H]1CCCC[C@H]1[NH-].[Pt+2] and answer again. class 1

###

Could you please report measured -log10 GI50 for the items listed next?
Tested on: MCF10F
PROCEDURE DETAILS: -log10 GI50 (growth inhibition 50%) (-log10(M)); higher = more potent growth inhibition
API note: the answer field is a bare number with no unit suffix.

Fill in the blank: the reported -log10 GI50 of CC(=O)Nc1cccc(-n2c(=O)n(C3CC3)c(=O)c3c(Nc4ccc(I)cc4F)n(C)c(=O)c(C)c32)c1 is ____. 8.06

Next compound: O=c1[nH]c(=O)n([C@H]2C[C@H](O)[C@@H](CO)O2)cc1F 4.34

Would you kindly repeat that for Cc1c(O)cccc1C(=O)N[C@@H](CSc1ccccc1)[C@H](O)CN1C[C@H]2CCCC[C@H]2C[C@H]1C(=O)NC(C)(C)C ? 4.99

Now the same for CC(C)[C@H](CO)Nc1nc(Nc2cccc(Cl)c2)c2ncn(C(C)C)c2n1 4.74

And the next one, CCn1cc(-c2ccnc3[nH]c(-c4cccc(CN(C)C)c4)cc23)c(-c2ccc(NC(=O)N(C)C)cc2)n1 ? 5.69
